test system: LoVo; test: SRB colorimetric assay of cell growth and viability, LoVo; format: cell-based, human; conditions: 48 hours exposure
Where a SMILES comes first, the peptide text is derived from it. Bridges are numbered along the chain shown (N, C = ends). [ ]: non-standard residue; d: D form. The star is where a group is joined. d(aIle) = CC[C@H](C)[C@@H](N)C(=O)O; d(aThr) = C[C@@H](O)[C@@H](N)C(=O)O; Hexanoyl(5-Me) = CC(C)CCCC(=O)*; Orn = NCCC[C@H](N)C(=O)O; Dhb = C/C=C(\N)C(=O)O
measured.property: GI50 (µM)

[[record]]
compound = "C/C=C1\\NC(=O)[C@H](Cc2ccccc2)NC(=O)[C@@H](C(C)C)NC(=O)[C@@H]([C@@H](C)CC)NC(=O)[C@H](NC(=O)[C@H](NC(=O)[C@H](CCCN)NC(=O)[C@H]2CCCN2C(=O)[C@H](NC(=O)[C@@H](NC(=O)[C@@H](NC(=O)[C@H](NC(=O)CCCNC(=N)N)C(C)C)[C@@H](C)O)C(C)C)C(C)C)[C@@H](C)CC)[C@@H](C)OC(=O)[C@H](C(C)C)NC1=O [Compound 29, [4-GuBut^14]-KF]"
measured_property = "GI50"
val = 5.45

[[record]]
compound = "C/C=C1\\NC(=O)[C@H](Cc2ccccc2)NC(=O)[C@@H](C(C)C)NC(=O)[C@@H]([C@@H](C)CC)NC(=O)[C@H](NC(=O)[C@H](NC(=O)[C@H](CCCN)NC(=O)[C@H]2CCCN2C(=O)[C@H](NC(=O)[C@@H](NC(=O)[C@@H](NC(=O)[C@H](NC(=O)Cc2cc(F)cc(F)c2)C(C)C)[C@@H](C)O)C(C)C)C(C)C)[C@@H](C)CC)[C@@H](C)OC(=O)[C@H](C(C)C)NC1=O [Compound 22, [3,5-dFPhAc^14]-KF]"
measured_property = "GI50"
val = 0.288

[[record]]
compound = "C/C=C1\\NC(=O)[C@H](Cc2ccccc2)NC(=O)[C@@H](C(C)C)NC(=O)[C@@H]([C@@H](C)CC)NC(=O)[C@H](NC(=O)[C@H](NC(=O)[C@H](CCCN)NC(=O)[C@H]2CCCN2C(=O)[C@H](NC(=O)CCCC(C)C)C(C)C)[C@@H](C)CC)[C@@H](C)OC(=O)[C@H](C(C)C)NC1=O [Compound 31, [noVal^11, noThr^12, noD-Val^13]-KF] ({Hexanoyl(5-Me)}-[dV][dP][Orn][d(aIle)][d(aThr)][d(aIle)][dV]F[Dhb]V; ester 5-C)"
measured_property = "GI50"
val = 8.49

